Documented pKi across a set of molecules
Molecular target: Mu-type opioid receptor (Mus musculus, UniProt P42866)
Sequence (P42866 whole entry): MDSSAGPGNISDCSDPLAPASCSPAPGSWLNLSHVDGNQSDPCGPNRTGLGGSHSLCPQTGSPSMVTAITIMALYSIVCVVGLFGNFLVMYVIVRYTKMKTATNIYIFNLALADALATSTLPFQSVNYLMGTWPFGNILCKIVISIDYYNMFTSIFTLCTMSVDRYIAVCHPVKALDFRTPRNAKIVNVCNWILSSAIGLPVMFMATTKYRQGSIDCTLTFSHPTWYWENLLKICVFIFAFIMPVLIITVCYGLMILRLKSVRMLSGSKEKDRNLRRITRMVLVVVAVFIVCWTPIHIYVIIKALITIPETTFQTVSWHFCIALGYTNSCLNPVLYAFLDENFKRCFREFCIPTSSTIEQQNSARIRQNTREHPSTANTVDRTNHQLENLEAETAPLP
pKi: −log10 of the molar value.

| sample_smiles | pKi |
| --- | --- |
| CC(C)[C@H](NC(=O)[C@H](CC(=O)O)NC(=O)[C@H](Cc1ccccc1)NC(=O)[C@@H](C)NC(=O)[C@@H](N)Cc1ccc(O)cc1)C(=O)N[C@H](C(=O)N[C@@H](CO)C(=O)OC[C@H]1O[C@H](O)[C@H](O)[C@@H](O)[C@@H]1O)C(C)C | 6.06 |
| C[C@H](NC(=O)[C@@H]1CCCN1C(=O)[C@H](Cc1ccc(O)cc1)NC(=O)CNC(=O)[C@H](Cc1ccccc1)NC(=O)[C@@H](C)NC(=O)[C@@H](N)Cc1ccc(O)cc1)C(N)=O | 8.92 |

---

Test system: Mus musculus
Test: Antinociceptive activity after subcutaneous administration in mice was determined in analgesia hotplate test
Format: functional
Rule for this label: Satisfied means AD50 is less than 40 µM/kg; Not satisfied means AD50 is at least 40 µM/kg.

| sample_smiles | tested_system | class_label |
| --- | --- | --- |
| CC(C)[C@H](NC(=O)[C@H](CC(=O)O)NC(=O)[C@H](Cc1ccccc1)NC(=O)[C@@H](C)NC(=O)[C@@H](N)Cc1ccc(O)cc1)C(=O)N[C@H](C(=O)N[C@H](CO)C(=O)OC[C@H]1O[C@H](O)[C@H](O)[C@@H](O)[C@@H]1O)C(C)C | Mus musculus | Not satisfied |
| CC(C)[C@H](NC(=O)[C@H](CC(=O)O)NC(=O)[C@H](Cc1ccccc1)NC(=O)[C@@H](C)NC(=O)[C@@H](N)Cc1ccc(O)cc1)C(=O)N[C@H](C(=O)N[C@H](C)C(=O)O[C@H]1O[C@H](O)[C@H](O)[C@@H](O)[C@H]1O)C(C)C | Mus musculus | Satisfied |
| C[C@H](NC(=O)[C@@H]1CCCN1C(=O)[C@H](Cc1ccc(O)cc1)NC(=O)CNC(=O)[C@H](Cc1ccccc1)NC(=O)[C@@H](C)NC(=O)[C@@H](N)Cc1ccc(O)cc1)C(=O)OC[C@H]1O[C@H](O)[C@H](O)[C@@H](O)[C@H]1O | Mus musculus | Satisfied |
| C[C@@H](NC(=O)[C@@H](N)Cc1ccc(O)cc1)C(=O)N[C@@H](Cc1ccccc1)C(=O)NCC(=O)N[C@@H](Cc1ccc(O)cc1)C(=O)N1CCC[C@H]1C(=O)N[C@@H](CO)C(=O)OC[C@H]1O[C@H](O)[C@H](O)[C@@H](O)[C@@H]1O | Mus musculus | Satisfied |
| CC(=O)O[C@H]1[C@@H](OC(=O)[C@@H](C)NC(=O)[C@@H](NC(=O)[C@@H](NC(=O)[C@H](CC(=O)O)NC(=O)[C@H](Cc2ccccc2)NC(=O)[C@@H](C)NC(=O)[C@@H](N)Cc2ccc(O)cc2)C(C)C)C(C)C)O[C@H](O)[C@H](O)[C@H]1O | Mus musculus | Not satisfied |

---

pKi: −log10 of the molar value.
Mu-type opioid receptor (Mus musculus) data, read-out pKi

| sample_smiles | pKi |
| --- | --- |
| C[C@@H](NC(=O)[C@@H](N)Cc1ccc(O)cc1)C(=O)N[C@@H](Cc1ccccc1)C(=O)NCC(=O)N[C@@H](Cc1ccc(O)cc1)C(=O)N1C[C@H](O)C[C@H]1C(=O)N[C@@H](CCCCN)C(N)=O | 9.30 |
| CC(C)[C@H](NC(=O)[C@H](CC(=O)O)NC(=O)[C@H](Cc1ccccc1)NC(=O)[C@@H](C)NC(=O)[C@@H](N)Cc1ccc(O)cc1)C(=O)N[C@H](C(=O)NCC(N)=O)C(C)C | 5.70 |
| CC(=O)O[C@H]1[C@@H](OC(=O)[C@H](C)NC(=O)[C@@H](NC(=O)[C@@H](NC(=O)[C@H](CC(=O)O)NC(=O)[C@H](Cc2ccccc2)NC(=O)[C@@H](C)NC(=O)[C@@H](N)Cc2ccc(O)cc2)C(C)C)C(C)C)O[C@H](O)[C@H](O)[C@H]1O | 5.55 |
| CC(C)[C@H](NC(=O)[C@H](CC(=O)O)NC(=O)[C@H](Cc1ccccc1)NC(=O)[C@@H](C)NC(=O)[C@@H](N)Cc1ccc(O)cc1)C(=O)N[C@H](C(=O)N[C@@H](C)C(=O)O[C@H]1O[C@H](O)[C@H](O)[C@@H](O)[C@H]1O)C(C)C | 5.80 |
| C[C@@H](NC(=O)[C@@H](N)Cc1ccc(O)cc1)C(=O)N[C@@H](Cc1ccccc1)C(=O)NCC(=O)N[C@@H](Cc1ccc(O)cc1)C(=O)N1CCC[C@H]1C(=O)N[C@@H](CO)C(N)=O | 8.96 |

---

Assay: Half-life time of enzymatic breakdown in mouse brain.
Format: ADME
Documented half-life across a set of compounds

| sample_smiles | half-life, min |
| --- | --- |
| CC(C)[C@H](NC(=O)[C@H](CC(=O)O)NC(=O)[C@H](Cc1ccccc1)NC(=O)[C@@H](C)NC(=O)[C@@H](N)Cc1ccc(O)cc1)C(=O)N[C@H](C(=O)NCC(N)=O)C(C)C | 240 |
| C[C@@H](NC(=O)[C@@H](N)Cc1ccc(O)cc1)C(=O)N[C@@H](Cc1ccccc1)C(=O)NCC(=O)N[C@@H](Cc1ccc(O)cc1)C(=O)N1CCC[C@H]1C(=O)N[C@@H](CO)C(N)=O | 20 |
| C[C@@H](NC(=O)[C@@H](N)Cc1ccc(O)cc1)C(=O)N[C@@H](Cc1ccccc1)C(=O)NCC(=O)N[C@@H](Cc1ccc(O)cc1)C(=O)N1C[C@H](O)C[C@H]1C(=O)N[C@@H](CCCCN)C(N)=O | 30 |

---

Mu-type opioid receptor (Mus musculus) data, read-out Ki
parameter_measured: Ki

| sample_smiles | tested_system | parameter_measured | reported |
| --- | --- | --- | --- |
| CC(=O)O[C@H]1[C@H](O)[C@@H](O)[C@@H](O)O[C@@H]1COC(=O)[C@H](CO)NC(=O)[C@@H](NC(=O)[C@@H](NC(=O)[C@H](CC(=O)O)NC(=O)[C@H](Cc1ccccc1)NC(=O)[C@@H](C)NC(=O)[C@@H](N)Cc1ccc(O)cc1)C(C)C)C(C)C | Mu-type opioid receptor (Mus musculus) | Ki | 1920 nM |
| CC(C)[C@H](NC(=O)[C@H](CC(=O)O)NC(=O)[C@H](Cc1ccccc1)NC(=O)[C@@H](C)NC(=O)[C@@H](N)Cc1ccc(O)cc1)C(=O)N[C@H](C(=O)N[C@@H](CO)C(N)=O)C(C)C | Mu-type opioid receptor (Mus musculus) | Ki | 1100 nM |
| CC(=O)O[C@@H]1[C@H](O)[C@@H](O)[C@@H](O)O[C@@H]1COC(=O)[C@H](C)NC(=O)[C@@H]1CCCN1C(=O)[C@H](Cc1ccc(O)cc1)NC(=O)CNC(=O)[C@H](Cc1ccccc1)NC(=O)[C@@H](C)NC(=O)[C@@H](N)Cc1ccc(O)cc1 | Mu-type opioid receptor (Mus musculus) | Ki | 11.2 nM |
| CC(C)[C@H](NC(=O)[C@H](CC(=O)O)NC(=O)[C@H](Cc1ccccc1)NC(=O)[C@@H](C)NC(=O)[C@@H](N)Cc1ccc(O)cc1)C(=O)N[C@H](C(=O)N[C@@H](C)C(N)=O)C(C)C | Mu-type opioid receptor (Mus musculus) | Ki | 1900 nM |
| C[C@H](NC(=O)[C@@H]1CCCN1C(=O)[C@H](Cc1ccc(O)cc1)NC(=O)CNC(=O)[C@H](Cc1ccccc1)NC(=O)[C@@H](C)NC(=O)[C@@H](N)Cc1ccc(O)cc1)C(=O)OC[C@H]1O[C@H](O)[C@H](O)[C@@H](O)[C@H]1O | Mu-type opioid receptor (Mus musculus) | Ki | 2.5 nM |

---

Documented half-life across a set of compounds
Experiment: Half-life time of enzymatic breakdown in mouse brain.
Assay type: ADME

| sample_smiles | rel | half-life (h) |
| --- | --- | --- |
| C[C@@H](NC(=O)[C@@H](N)Cc1ccc(O)cc1)C(=O)N[C@@H](Cc1ccccc1)C(=O)NCC(=O)N[C@@H](Cc1ccc(O)cc1)C(=O)N1CCC[C@H]1C(=O)N[C@@H](CO)C(=O)OC[C@H]1O[C@H](O)[C@H](O)[C@@H](O)[C@@H]1O | = | 0.633 |
| CC(C)[C@H](NC(=O)[C@H](CC(=O)O)NC(=O)[C@H](Cc1ccccc1)NC(=O)[C@@H](C)NC(=O)[C@@H](N)Cc1ccc(O)cc1)C(=O)N[C@H](C(=O)N[C@@H](CO)C(=O)OC[C@H]1O[C@H](O)[C@H](O)[C@@H](O)[C@@H]1O)C(C)C | > | 4 |
| CC(=O)O[C@H]1[C@H](O)[C@@H](O)[C@@H](O)O[C@@H]1COC(=O)[C@H](CO)NC(=O)[C@@H](NC(=O)[C@@H](NC(=O)[C@H](CC(=O)O)NC(=O)[C@H](Cc1ccccc1)NC(=O)[C@@H](C)NC(=O)[C@@H](N)Cc1ccc(O)cc1)C(C)C)C(C)C | > | 4 |
| CC(=O)O[C@H]1[C@H](O)[C@@H](O)[C@@H](O)O[C@@H]1COC(=O)[C@H](CO)NC(=O)[C@@H]1CCCN1C(=O)[C@H](Cc1ccc(O)cc1)NC(=O)CNC(=O)[C@H](Cc1ccccc1)NC(=O)[C@@H](C)NC(=O)[C@@H](N)Cc1ccc(O)cc1 | = | 1.5 |
